Tested on: NCI-H23 lung
Test: NCI tumour cell line growth inhibition, 48 h
So I've got a bunch of compounds here, and I need their TGI values.

Could you share which TGI value was measured for `O=C(Cc1ccccc1)NN1C(=O)/C(=C\c2cccc([N+](=O)[O-])c2)SC1=Nc1ccccc1` ?
> 100 µM

I'd like to know its TGI. The compound in question is C/C(=N\OCC(O)CNCCSCc1ccccc1)c1ccccc1Cl (stereo not drawn)
> 100 µM

Request the reported TGI associated with O=C1CSC(c2ccccc2)N1c1ccc(-n2c(-c3ccccc3)nc3ccccc3c2=O)cc1 (stereo not drawn)
> 100 µM

If you can, please state the reported TGI value of Oc1ccc2c3c1OC1c4[nH]ncc4C[C@H]4[C@@H](C2)N(CC2CC2)CC[C@]314 (stereo partly drawn) .
> 100 µM

TGI lookup needed for `O=C(c1ccc(C(F)(F)F)c(Cl)c1)N(Cc1ccc(Cl)cc1)c1ccc(-c2cc(C(F)(F)F)[nH]n2)c(O)c1` , thanks.
2.45 µM

Bench note: what TGI did `CCOC(=O)c1ccc(C(=O)n2ccnc2)[nH]1` show?
> 100 µM

Need TGI, item CCOC(=O)CCC(C(=O)OCC)n1nc2ccc(Nc3c(C)[n+]([O-])c4cc(F)c(OCC)cc4[n+]3[O-])cc2n1 (stereo not drawn)
> 100 µM

State the recorded TGI for this entry: `Cn1cc(C2=C(c3cn(-c4ccccc4)c4ccccc34)C(=O)NC2=O)c2ccccc21`
> 25 µM

Look up TGI for this compound: O=C(O)CC(NC(=O)/C(=C/c1ccccc1)NC(=O)c1ccccc1)C(=O)O (stereo not drawn)
> 100 µM

Sample `O=C(O)c1ccc(C(O)(c2ccccc2)c2ccccc2)cc1` — what was its TGI?
> 100 µM

Please give the measured TGI for this compound: `C[Si](C)(C)c1ccc(-c2c3ccc(-c4cc(Br)cc(Br)c4)nc3nc3nc(-c4cc(Br)cc(Br)c4)ccc23)cc1`
> 100 µM

Would you mind telling me what TGI value was observed for O=C(NC(Cc1ccc(Br)cc1)C(=O)O)c1ccc(I)cc1 (stereo not drawn) ?
> 100 µM

Reported TGI for `COC(=O)c1cc2oc(/C=C3/SC(=S)N(N)C3=O)cc2n1Cc1ccccc1` : what is it?
21.2 µM

Every entry's value here was drawn from PubChem BioAssay (NCI).
